The measured values listed here are drawn from paper PMC4336329.

TARGET_OR_SYSTEM: human ether-à-go-go-related gene (hERG) potassium channel (human)
ASSAY: primary screen, population patch clamp on CHO cells stably expressing hERG; higher = less effect of the substance
Among all 310,000 compounds or so, about 14,000 (4.5%) showed an effect of 50% or more. Effects have a minus sign here. The full list was thinned out, with strong results kept by preference.
QUANTITY_NAME: hERG current change (%, negative = inhibition) at 10uM (%)
# value in %; strip the unit string

**Query** Can you share its hERG current change (%, negative = inhibition) at 10uM? I mean this molecule: CCCCN=C1SC(C(=O)Nc2sc3c(c2C(=O)OC)CCC3)C(N)=C1C(=O)N1CCOCC1 (centres unmarked)
**Result** -1.11

**Query** Next record, please: COc1ccc(-c2ccc(C#N)c(SCC(=O)Nc3sc4c(c3C#N)CCC4)n2)cc1OC
**Result** 10.3

**Query** Next record, please: Cc1cc2cc(C#N)c(SCC(=O)Nc3nonc3C)nc2cc1C
**Result** -0.0959

**Query** Next record, please: O=c1cc(CN2CCN(S(=O)(=O)c3ccc4ccccc4c3)CC2)nc2sccn12
**Result** -25.2

**Query** Next record, please: CCOC(=O)c1c(C)oc2cc(Cl)c(O)c(CN(C)C)c12
**Result** -6.79

**Query** Next record, please: CCOC(=O)N1CCC(N2CCN(S(=O)(=O)c3ccc(C)cc3)CC2)CC1.O=C(O)C(=O)O
**Result** -19.1

**Query** Next record, please: Cc1ccc(S(=O)(=O)N2CCN(C3CCN(Cc4ccccc4)CC3)CC2)cc1.O=C(O)C(=O)O
**Result** -76.6

Next, consider the following molecule.
**Query** Can you share its hERG current change (%, negative = inhibition) at 10uM? I mean this molecule: CC(=O)OCC(=O)[C@@]1(OC(C)=O)[C@@H](C)C[C@H]2[C@@H]3C[C@H](F)C4=CC(=O)C=C[C@]4(C)[C@@]3(F)[C@@H](O)C[C@@]21C
**Result** -15.1

====

# hERG current change (%, negative = inhibition) at 10uM annotations
TARGET_OR_SYSTEM: human ether-à-go-go-related gene (hERG) potassium channel (human)
ASSAY: primary screen, population patch clamp on CHO cells stably expressing hERG; higher = less effect of the substance
In all, about 310,000 compounds went through this assay and about 14,000 (4.5%) showed an effect of 50% or more. The effect is printed as a negative number. The list comes from a sample in which strong results are over-represented; it also holds close analogues and randomly drawn compounds.
Answer format: value, then unit.

The cases that follow already have their hERG current change (%, negative = inhibition) at 10uM on record.
**Query** Form: Entry = CCOc1cccc(C(=O)NC(=S)Nc2ccc(N3CCN(CC)CC3)cc2)c1 | System = human ether-à-go-go-related gene (hERG) potassium channel (human) | hERG current change (%, negative = inhibition) at 10uM = ____;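 note: peak tail current of the secondary pulse compared with the same well before compound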
**Result** -72.1%

**Query** Next record, please: CCOc1cc(N2CCOCC2)c(OCC)cc1NC(=O)CN1C(=O)C2CC=CCC2C1=O (stereo not drawn)
**Result** -8.84%

**Query** Next record, please: CCOc1ccc2c(c1)c(N=NC(N)=S)c(O)n2C
**Result** 1.21%

**Query** Next record, please: CCOc1ccc(S(=O)(=O)N2CCOCC2)cc1NC(=O)CN1C(=O)NC2(CCCCC2)C1=O
**Result** -17.9%

**Query** Next record, please: CCOc1ccc(NC(=S)NCCN2CCN(Cc3ccccc3)CC2)cc1
**Result** -62.3%

Next:
**Query** Form: Entry = CCOc1cc(N2CCOCC2)c(OCC)cc1NC(=O)CN1C(=O)N(C)C2(CCCCC2)C1=O | System = human ether-à-go-go-related gene (hERG) potassium channel (human) | hERG current change (%, negative = inhibition) at 10uM = ____;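 note: peak tail current of the secondary pulse compared with the same well before compound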
**Result** -23.5%

**Query** Next record, please: O=C(NCc1cccnc1)c1sc2ccccc2c1Cl
**Result** -28.9%

**Query** Next record, please: CCOc1cc(N2CCOCC2)c(OCC)cc1NC(=O)CN1C(=O)NC(CC(C)C)C1=O (stereo not drawn)
**Result** -70.4%

**Query** Next record, please: CCOc1cc(N2CCOCC2)c(OCC)cc1NC(=O)CN1C(=O)NC(Cc2ccccc2)C1=O (stereo not drawn)
**Result** -25.5%

**Query** Next record, please: O=C(NCc1cccnc1)c1sc2cc(Cl)ccc2c1Cl
**Result** -55.4%

**Query** Next record, please: CCCn1c(=O)c(C(=O)NCc2ccncc2)c(O)c2ccccc21
**Result** -63%

**Query** Next record, please: Cc1ccc(CNC(=O)c2ccc3c(=O)n(CCCN4CCCC4=O)c(=S)[nH]c3c2)cc1
**Result** 6.41%

**Query** Next record, please: CCOc1ccc(NC(=S)NCCCN2CCN(c3ccc(OC)cc3)CC2)cc1
**Result** -70.7%

**Query** Next record, please: [Cl-].c1ccc(COc2ccc(-c3sc(Nc4ccccc4)n[n+]3-c3ccccc3)cc2)cc1
**Result** -43.9%

====

TARGET_OR_SYSTEM: human ether-à-go-go-related gene (hERG) potassium channel (human, UniProt Q12809);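 note: peak tail current of the secondary pulse compared with the same well before compound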
Sequence (Q12809 whole entry, looked up): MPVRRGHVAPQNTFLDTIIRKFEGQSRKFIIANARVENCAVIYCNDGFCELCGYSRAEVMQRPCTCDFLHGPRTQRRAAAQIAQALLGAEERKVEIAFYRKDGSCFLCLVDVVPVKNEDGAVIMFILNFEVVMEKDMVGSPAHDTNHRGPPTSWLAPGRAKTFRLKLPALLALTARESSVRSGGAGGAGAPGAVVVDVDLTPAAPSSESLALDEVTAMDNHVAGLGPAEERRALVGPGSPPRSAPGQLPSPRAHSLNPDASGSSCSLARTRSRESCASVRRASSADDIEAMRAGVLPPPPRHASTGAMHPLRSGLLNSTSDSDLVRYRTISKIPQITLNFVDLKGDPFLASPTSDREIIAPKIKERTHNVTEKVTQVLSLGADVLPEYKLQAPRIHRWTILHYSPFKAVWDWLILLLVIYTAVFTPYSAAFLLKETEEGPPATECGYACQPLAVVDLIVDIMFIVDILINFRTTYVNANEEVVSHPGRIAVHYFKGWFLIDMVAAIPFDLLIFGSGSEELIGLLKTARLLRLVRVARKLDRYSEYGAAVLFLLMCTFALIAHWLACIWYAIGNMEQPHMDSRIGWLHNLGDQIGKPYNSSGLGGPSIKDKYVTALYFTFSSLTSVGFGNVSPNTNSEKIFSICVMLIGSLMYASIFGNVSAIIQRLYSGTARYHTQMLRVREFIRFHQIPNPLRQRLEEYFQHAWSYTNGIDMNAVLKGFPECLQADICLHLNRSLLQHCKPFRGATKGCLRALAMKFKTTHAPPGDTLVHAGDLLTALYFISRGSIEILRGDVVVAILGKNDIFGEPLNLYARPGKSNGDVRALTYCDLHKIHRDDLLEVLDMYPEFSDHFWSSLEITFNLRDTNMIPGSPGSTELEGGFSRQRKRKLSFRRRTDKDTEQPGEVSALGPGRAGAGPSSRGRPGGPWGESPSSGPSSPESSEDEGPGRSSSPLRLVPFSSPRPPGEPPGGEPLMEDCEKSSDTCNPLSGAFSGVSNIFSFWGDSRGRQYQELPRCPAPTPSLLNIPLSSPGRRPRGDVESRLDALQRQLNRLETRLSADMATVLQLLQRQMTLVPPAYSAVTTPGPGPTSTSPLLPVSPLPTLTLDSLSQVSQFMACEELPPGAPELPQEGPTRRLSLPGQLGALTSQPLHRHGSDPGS
ASSAY: primary screen, population patch clamp on CHO cells stably expressing hERG; higher = less effect of the substance
About 14,000 (4.5%) of roughly 310,000 compounds showed an effect of 50% or more. The effect is printed as a negative number. What follows is part of a selection rich in strong results, with near analogues and random picks from the rest.
Returns rule met if the recorded hERG current change (%, negative = inhibition) at 10uM is greater than or equal to -20%, and rule not met otherwise.

**Query** Reported hERG current change (%, negative = inhibition) at 10uM reaches at least -20% for CC(C)(CN1CCCC1)NS(=O)(=O)c1ccccc1.Cl ?
**Result** rule met

**Query** Next record, please: COc1ccc(CNCc2cc3c(C(C)(C)C)nn(-c4ccccc4)c3[nH]c2=O)cc1
**Result** rule not met

**Query** Next record, please: COc1ccc(OCC(=O)Nc2cc(-c3nn4c(C)nnc4s3)ccc2C)cc1
**Result** rule met

**Query** Next record, please: Cc1ccc(S(=O)(=O)NC(C)(C)CN2CCC(Cc3ccccc3)CC2)cc1.O=C(O)C(=O)O
**Result** rule not met

Next:
**Query** Reported hERG current change (%, negative = inhibition) at 10uM reaches at least -20% for Cc1ccc(-c2nn3c(C)nnc3s2)cc1NC(=O)COc1ccc(Cl)cc1 ?
**Result** rule not met

**Query** Next record, please: OC(COc1ccccc1)Cn1cc(Br)cn1 (stereo not drawn)
**Result** rule met

**Query** Next record, please: Cc1ccc(OCC(=O)Nc2cc(-c3nn4c(C)nnc4s3)ccc2C)cc1
**Result** rule not met

**Query** Next record, please: CC(C)(CN1CCC(Cc2ccccc2)CC1)NS(=O)(=O)c1ccccc1.O=C(O)C(=O)O
**Result** rule not met

**Query** Next record, please: CCOC(=O)C1CCN(CC(C)(C)NS(=O)(=O)c2ccc(C)cc2)CC1
**Result** rule met

====

TARGET_OR_SYSTEM: human ether-à-go-go-related gene (hERG) potassium channel (human, UniProt Q12809);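 note: peak tail current of the secondary pulse compared with the same well before compound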
ASSAY: primary screen, population patch clamp on CHO cells stably expressing hERG; higher = less effect of the substance
In all, about 310,000 compounds went through this assay and about 14,000 (4.5%) showed an effect of 50% or more. The effect is printed as a negative number. The full list was thinned out, with strong results kept by preference.
# hERG current change (%, negative = inhibition) at 10uM annotations
# value in %; strip the unit string

The cases that follow already have their hERG current change (%, negative = inhibition) at 10uM on record.
**Query** Can you share its hERG current change (%, negative = inhibition) at 10uM? I mean this compound: CCOc1ccc(C(=O)NCCN2CCCC2)cc1.Cl
**Result** -40.6

**Query** Next record, please: Cl.O=C(NCCN1CCN(c2ccccc2)CC1)c1cccc(Cl)c1
**Result** -54.2

**Query** Next record, please: Cc1cccc(C(=O)NCCN2CCN(c3ccccc3)CC2)c1.Cl
**Result** -37.1

Next:
**Query** Can you share its hERG current change (%, negative = inhibition) at 10uM? I mean this compound: CCOc1c(Cl)cc(C(=O)NCCN2CCCCC2)cc1Cl
**Result** -58.6

**Query** Next record, please: COc1cccc(C(=O)NCCN2CCN(c3ccc(Cl)cc3)CC2)c1
**Result** -49.8

**Query** Next record, please: COc1ccc(NC(=O)CSc2nnc(-c3ccoc3C)n2CC2CCCO2)cc1 (stereo not shown)
**Result** -5.04

**Query** Next record, please: COc1cccc(C(=O)NCCCN2CCN(CCCNC(=O)c3cccc(OC)c3)CC2)c1
**Result** -85.4

**Query** Next record, please: Cc1cc(NC(=O)CSc2nnc(C3CC3)n2Cc2ccccc2)no1
**Result** -8.63

**Query** Next record, please: COCCn1c(SCC(=O)Nc2ccc(OC)cc2)nnc1-c1ccoc1C
**Result** -3.58

**Query** Next record, please: CCOC(=O)Nc1nc(-c2ccc(Cl)cc2Cl)cs1
**Result** 11.7
